FYI, the data here is from the Human Domainome abundance scans (Beltran et al. 2025).

B1: Receptor-interacting serine/threonine-protein kinase 2, residues 438 to 518; numbered along this chain, O43353 (parent)
chain: QWIQSKREDIVNQMTEACLNQSLDALLSRDLIMKEDYELVSTKPTRTSKVRQLLDTTDIQGEEFAKVIVQKLKDNKQMGLQ

- Variants of: B1
- measurement notes: abundance fitness (aPCA) (normalised: wild type 0, dead -1); higher = more abundant; growth selection in yeast, the domain comes from the species named
- condition details: Homo sapiens
Reported abundance fitness values follow for various variants
parameter measured: abundance fitness

residues="QWIQSKREDIVNQMTEACLNQSLDALLSRDVIMKEDYELVSTKPTRTSKVRQLLDTTDIQGEEFAKVIVQKLKDNKQMGLQ [L31V]" endpoint_value=-0.588
residues="QWIQSKREDIVNQMTEACLNQSLDALLSRDLIMKEDYELVSTKPTRTSKVRQLLDDTDIQGEEFAKVIVQKLKDNKQMGLQ [T56D]" endpoint_value=-0.849
residues="QWIQSKREDIVNQMTEACLNQSLDALLSRDLIMKEDYFLVSTKPTRTSKVRQLLDTTDIQGEEFAKVIVQKLKDNKQMGLQ [E38F]" endpoint_value=-0.221
residues="QWIQSKREDIVNQMTEACLNQSLDALLSRDLIMKEDYELVSTKPTRTSKVRQLLPTTDIQGEEFAKVIVQKLKDNKQMGLQ [D55P]" endpoint_value=-0.676
residues="QWIQSKREDIVNQMTEACLNQSLDALLSRDWIMKEDYELVSTKPTRTSKVRQLLDTTDIQGEEFAKVIVQKLKDNKQMGLQ [L31W]" endpoint_value=-0.949
residues="QWIQSKREDIVNQMTEACLNQSLDALLSRDLIMKEDYELVSTKPTRTSKVRQLLDTFDIQGEEFAKVIVQKLKDNKQMGLQ [T57F]" endpoint_value=-0.392
residues="QWIQSKREDIVNQMTEACLNQSLDALLSRDLITKEDYELVSTKPTRTSKVRQLLDTTDIQGEEFAKVIVQKLKDNKQMGLQ [M33T]" endpoint_value=0.247
residues="QWIQSKREDIVNQMTEACLNQSLDALLSRDLKMKEDYELVSTKPTRTSKVRQLLDTTDIQGEEFAKVIVQKLKDNKQMGLQ [I32K]" endpoint_value=-0.94
residues="QWIQSKREDIVNQMTEACLNPSLDALLSRDLIMKEDYELVSTKPTRTSKVRQLLDTTDIQGEEFAKVIVQKLKDNKQMGLQ [Q21P]" endpoint_value=-0.793
residues="QWIQSKREDIVNQMTEACLNQSLDALLSRDLIMKEDYELVSTKPTRTSKVRQLLDTTDIQGEEFAKVIVQKLKWNKQMGLQ [D74W]" endpoint_value=-0.488
residues="QWIQSKREDIVNQMTEACLNQSLDALLSRDLIPKEDYELVSTKPTRTSKVRQLLDTTDIQGEEFAKVIVQKLKDNKQMGLQ [M33P]" endpoint_value=-0.039
residues="QWIQSKREDIVNQMTEACLNQSLDALLSRDLIMKEDYELVSKKPTRTSKVRQLLDTTDIQGEEFAKVIVQKLKDNKQMGLQ [T42K]" endpoint_value=-0.206
residues="QWIQSKREDIVNQMTEACLNQSLDALLSRDLIMKEDYELVNTKPTRTSKVRQLLDTTDIQGEEFAKVIVQKLKDNKQMGLQ [S41N]" endpoint_value=0.094
residues="QWIQSKREDIVNQMTEACLNQPLDALLSRDLIMKEDYELVSTKPTRTSKVRQLLDTTDIQGEEFAKVIVQKLKDNKQMGLQ [S22P]" endpoint_value=-0.621
residues="QWIQSKREDIVNQMTEACLNQSLDALLSRDLIMKEDYELVSTKPTRTSKVRQLADTTDIQGEEFAKVIVQKLKDNKQMGLQ [L54A]" endpoint_value=-0.345
residues="QWIQSKREDIVNQMTEACLNQSLDALLSRDLIMKEDYELVWTKPTRTSKVRQLLDTTDIQGEEFAKVIVQKLKDNKQMGLQ [S41W]" endpoint_value=-0.466
residues="QWIQSKREDIVNQMTEACLNQSLDALLSRDLIMKEDYELVSTKPTRTSKVRQLLDTTDIQGEEFAKVIVQILKDNKQMGLQ [K71I]" endpoint_value=-0.122
residues="QWIQSKREDIVNQMTEACLNQSLDALLSRDLIMKEDYELVSYKPTRTSKVRQLLDTTDIQGEEFAKVIVQKLKDNKQMGLQ [T42Y]" endpoint_value=-0.406
residues="QWIQSKREDIVNQMTEACLNQSLDALLSRDLIMKEDYELVSTKPTRTQKVRQLLDTTDIQGEEFAKVIVQKLKDNKQMGLQ [S48Q]" endpoint_value=0.123
residues="QWIQSKREDIVNQMTEACLNQSLDALLSRDLIMKEDYELVSTKPTRTSKVRQLLDTTDIRGEEFAKVIVQKLKDNKQMGLQ [Q60R]" endpoint_value=-0.057
residues="QWIQSKREDIVNQMTEACLNQSLDALLSRDLIMWEDYELVSTKPTRTSKVRQLLDTTDIQGEEFAKVIVQKLKDNKQMGLQ [K34W]" endpoint_value=-0.243
residues="QWIQSKREDIVNQMTEACLNQSLDALLSRDLIMKEDYELVSTKPTRTSKVNQLLDTTDIQGEEFAKVIVQKLKDNKQMGLQ [R51N]" endpoint_value=-0.207
residues="QWIQSKREDIVNQMTEACLNQSLDALLSRDLIMKEDYELVSTKPTRTSKVRQLLDTTDIQGEEFAKVIVQKFKDNKQMGLQ [L72F]" endpoint_value=-0.072
residues="QWIQSKREDIVNQMTEACLNQSLDALLSRDLIMKEDYELVSTKPTRTSKVRQLLDTTDIQMEEFAKVIVQKLKDNKQMGLQ [G61M]" endpoint_value=-0.947
residues="QWIQSKREDIVNQMTEACLNQSLDALLSRDLIMKECYELVSTKPTRTSKVRQLLDTTDIQGEEFAKVIVQKLKDNKQMGLQ [D36C]" endpoint_value=-0.839
residues="QWIQSKREDIVNQMTEACLNQSLDALLSRDLIMKEDYELVSTKPTRTSKVRQLLDPTDIQGEEFAKVIVQKLKDNKQMGLQ [T56P]" endpoint_value=-0.612
residues="QWIQSKREDIVNQMTEACLNQSLDALLSRDLIMKEDYELVSTKPTRTSKVRWLLDTTDIQGEEFAKVIVQKLKDNKQMGLQ [Q52W]" endpoint_value=-0.011
residues="QWIQSKREDIVNQMTEACLNQILDALLSRDLIMKEDYELVSTKPTRTSKVRQLLDTTDIQGEEFAKVIVQKLKDNKQMGLQ [S22I]" endpoint_value=0.565
residues="QWIQSKREDIVNQMTEACLNQSLDALLSRDLIMKEDYELVSTKPTRTSKVRQLLDTTDIQGEEFAKWIVQKLKDNKQMGLQ [V67W]" endpoint_value=-0.95
residues="QWIQSKREDIVNQMTEACLNQSLDALLSRDLIMKEDYELVSTKPTRRSKVRQLLDTTDIQGEEFAKVIVQKLKDNKQMGLQ [T47R]" endpoint_value=0.049
residues="QWIQSKREDIVNQMTEACLNQSLDTLLSRDLIMKEDYELVSTKPTRTSKVRQLLDTTDIQGEEFAKVIVQKLKDNKQMGLQ [A25T]" endpoint_value=-0.174
residues="QWIQSKREDIVNQMTEACLNQSLDALLSRDLIMKEDYELVSTKPTRTSKVRQLLDFTDIQGEEFAKVIVQKLKDNKQMGLQ [T56F]" endpoint_value=0.037
residues="QWIQSKREDIVNQMTEACLNQSLDALLSRDLIMSEDYELVSTKPTRTSKVRQLLDTTDIQGEEFAKVIVQKLKDNKQMGLQ [K34S]" endpoint_value=-0.23
residues="QWIQSKREDIVNQMTEACLNQSLDALLSRDLIMKEDYELVSTKPTETSKVRQLLDTTDIQGEEFAKVIVQKLKDNKQMGLQ [R46E]" endpoint_value=-0.214
residues="QWIQSKREDIVNQMTEACLNQSLDALLSRDLIMKEDYEGVSTKPTRTSKVRQLLDTTDIQGEEFAKVIVQKLKDNKQMGLQ [L39G]" endpoint_value=-0.34
residues="QWIQSKREDIVNQMTEACLNQSLDALLSRDLIMKEDYELVSTKPTRTSKVRQLLDTTDIQGEEFAKVNVQKLKDNKQMGLQ [I68N]" endpoint_value=-0.459
residues="QWIQSKREDIVNQMTEACLNQSLDALLSRDLIMKEDYELVSTKPTRGSKVRQLLDTTDIQGEEFAKVIVQKLKDNKQMGLQ [T47G]" endpoint_value=-0.185
residues="QWIQSKREDIVNQMTEACLNQSLDALLSRDLIMKEDYELVSTKPTRTSKVRQLLDTPDIQGEEFAKVIVQKLKDNKQMGLQ [T57P]" endpoint_value=-0.04
residues="QWIQSKREDIVNQMTEACLNQSLDALLSRDLIMKEDYELVSTKPTRTSKVRQLLDTTDIQGEEFAKVIVQKLKDPKQMGLQ [N75P]" endpoint_value=-0.446
residues="QWIQSKREDIVNQMTEACLNQSLDALLSRDLIMKEDYELVSTKPTRTSKVRQLLDTTDIQGEEFAFVIVQKLKDNKQMGLQ [K66F]" endpoint_value=-1.05
residues="QWIQSKREDIVNQMTEACLNQSLDALLSRDLIMKEDYELVSTKPTRTSKVRQLLDTTDIQGEEFSKVIVQKLKDNKQMGLQ [A65S]" endpoint_value=-0.457
residues="QWIQSKREDIVNQMTEACLNQSLDALLSRDLIMKEDYELVSTKPTRTSKVRQILDTTDIQGEEFAKVIVQKLKDNKQMGLQ [L53I]" endpoint_value=-0.544
residues="QWIQSKREDIVNQMTEACLNQSLDALLSRDLIMKEDYELVSTKHTRTSKVRQLLDTTDIQGEEFAKVIVQKLKDNKQMGLQ [P44H]" endpoint_value=-0.761
residues="QWIQSKREDIVNQMTEACLNMSLDALLSRDLIMKEDYELVSTKPTRTSKVRQLLDTTDIQGEEFAKVIVQKLKDNKQMGLQ [Q21M]" endpoint_value=-0.736
residues="QWIQSKREDIVNQMTEACLNQSLDALLSKDLIMKEDYELVSTKPTRTSKVRQLLDTTDIQGEEFAKVIVQKLKDNKQMGLQ [R29K]" endpoint_value=0.002
residues="QWIQSKREDIVNQMTEACLNQSLDALLSRDLIMKEDYELVSTKPTRKSKVRQLLDTTDIQGEEFAKVIVQKLKDNKQMGLQ [T47K]" endpoint_value=-0.031
